Test system: BT-549 breast
Assay: NCI tumour cell line growth inhibition, 48 h
Label Yes when TGI is at or above 50 µM; otherwise label No.

O=[N+]([O-])c1ccc2[nH]ncc2c1Cl :: Yes

Task: Entry CCCCCCCCCCCCC(O)C1CCC(C(O)CCCCCCC(O)CCCCCCCC2=CC(C)OC2=O)O1 (stereo not drawn) : is its TGI no less than 50 µM?
Output: Yes

Task: Entry "CN(/N=C/c1ccccn1)C1=NCCCCN1" : is its TGI no less than 50 µM?
Output: Yes

Task: Entry "O=c1oc2ccccc2c(O)c1C(c1ccc(/C=C/c2ccccc2)cc1)c1c(O)c2ccccc2oc1=O" : is its TGI no less than 50 µM?
Output: Yes

Task: Entry "O=c1cc(CBr)c2ccc(O)cc2o1" : is its TGI no less than 50 µM?
Output: Yes

Task: Entry "O=C(CCc1ccc(O)cc1)NCCc1cccc(OCc2ccccc2)c1" : is its TGI no less than 50 µM?
Output: No

Task: Entry "c1ccc2c(c1)-c1ccccc1C2N1CC2CCC(CC2)C1" : is its TGI no less than 50 µM?
Output: No

Task: Entry "C[C@@H]1N=C(c2ccc(Br)cc2)Nc2nc3ccccn3c2C1=O" : is its TGI no less than 50 µM?
Output: Yes

---

These molecules were tested on MDA-MB-435; GI50 is the recorded read-out.

O=C([O][Hg][CH2]C1COCC([CH2][Hg][O]C(=O)c2ccccc2)O1)c1ccccc1 (stereo not given) :: 14200 nM
Cc1cc(I)cc(CN(C)CCN2CCCC2)c1O :: 18300 nM
CCCN1CCN(c2ccc3nc(-c4ccc5nc(-c6cc(OC)ccc6OC)[nH]c5c4)[nH]c3c2)CC1 :: 1790 nM
CCCCCCCCCCCCC(O)C1CCC(C(O)CCCCCCC(O)CCCCCCCC2=CC(C)OC2=O)O1 (stereo not given) :: 27000 nM
CCN=c1cc2sc3cc(NCC)c(C)cc3nc-2cc1C :: 1550 nM

The value of GI50 measured for the molecule COc1ccc2c(c1)OC1=C(C(=O)OC1)C2c1cc(OC)c(OC)c(OC)c1 (stereo not given) turned out to be 104 nM

The value of GI50 measured for the molecule "O=C(CC12CC3CC(CC(C3)C1)C2)NCCOCCOCCOCCNC(=O)c1cc2c(o1)C(=O)c1ccccc1C2=O" turned out to be 200 nM

The value of GI50 measured for the molecule "Nc1cc(-c2cccc(OC(F)(F)F)c2)nc2ccc(N3CCCC3)cc12" turned out to be < 10.5 nM

The value of GI50 measured for the molecule "Nc1ccc2c3c(n(CCCCl)c(=O)c2c1)-c1cc2c(cc1C3=O)OCO2" turned out to be > 100000 nM

The value of GI50 measured for the molecule "Cc1cc(N2CCN(c3ccnc4cc(Cl)ccc34)CC2)nc(NC2CCCCC2)n1" turned out to be 1490 nM

---

Tested on: LXFL 529 NSCLC
Experiment: NCI tumour cell line growth inhibition, 48 h
List of TGI values.

Some entries whose results are on file:
Cc1ccc(NC(=O)CC(=O)n2nc(-c3ccccc3)c(N=Nc3ccccc3Cl)c2-c2ccccc2)cc1 :: > 100 µM
CC1(C)CCC[C@@]2(C)C1CC[C@H]1CC(O)C3(C)CCC12C3 (stereo partly drawn) :: 31.2 µM

Turning to the following compound.
The value of TGI measured for the compound "CCOC(=O)NC(=O)c1cn(CCCOC(=O)CCCCCCCCCCC(=O)OCCCn2cc(C(=O)NC(=O)OCC)c(=O)n(C)c2=O)c(=O)n(C)c1=O" turned out to be > 100 µM
